Assay: Ionotropic effect in guinea pig ventricle papillary muscles assessed as lengthening of 25% repolarized cardiac action potential duration time at 10^-7 M by microelectrode technique relative to untreated control (reference value: 84 to 104 APD25 ms)
Type: functional, Cavia porcellus, Papillary muscle
TEST_READOUT: Time (ms)
A number alone suffices; assume ms.

Q. Look at this molecule and give its reported Time. COC(=O)C1=C(C)NC(C)=C([N+](=O)[O-])C1c1ccccc1C(F)(F)F (stereo unspecified)
A. 92.7

Q. Reported Time for CCCOCCOC(=O)C1=C(C)NC=C([N+](=O)[O-])C1c1ccc(C(F)(F)F)cc1 (stereo unspecified) : what is it?
A. 91

Q. Fill in: Time of COC(=O)C1=C(C)NC=C([N+](=O)[O-])C1c1ccccc1C(F)(F)F (stereo unspecified) is ___
A. 92.5

Q. // lookup Time for COC(=O)C1=C(C)NC=C([N+](=O)[O-])C1c1ccccc1OC(F)F (stereo unspecified)
A. 90.6

Q. Can you share its Time? I mean this molecule: CCCOCCOC(=O)C1=C(C)NC=C([N+](=O)[O-])C1c1ccccc1OC(F)F (stereo unspecified)
A. 112.7

Q. Param item = COC(=O)C1=C(C)NC(C)=C([N+](=O)[O-])C1c1ccccc1OC(F)F (stereo unspecified) ; retrieve measured Time.
A. 101.7

Cited source: ChEMBL document CHEMBL2150950
